- ASSAY_TARGET: PPAR-delta (Homo sapiens, UniProt Q03181)
- Construct: expressed in transfected cells; host or cells: CV-1 cells
- Sequence (Q03181 211-439 limits assumed): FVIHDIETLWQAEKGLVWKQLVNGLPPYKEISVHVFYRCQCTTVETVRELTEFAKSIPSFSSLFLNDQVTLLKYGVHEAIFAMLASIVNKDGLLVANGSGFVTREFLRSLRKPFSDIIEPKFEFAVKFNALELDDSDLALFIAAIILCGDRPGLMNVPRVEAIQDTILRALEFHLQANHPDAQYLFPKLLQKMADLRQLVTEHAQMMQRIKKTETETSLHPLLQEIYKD
- PROTOCOL: human PPAR-GAL4 chimera luciferase reporter assay in CV-1 cells, PPAR-delta
- Type: cell-based
- MEASUREMENT_CONDITIONS: Table 2, Examples 1-10, read-out: PPAR δ EC50
pEC50: −log10 of the molar value.
PROPERTY_MEASURED: pEC50

Worked cases, answers included:
Cc1nc(-c2ccc(C(F)(F)F)cc2)sc1Cn1ccc2cc(C(=O)O)ccc21	< 5.00
Cc1nc(-c2ccc(C(F)(F)F)cc2)sc1COc1ccc2ccn(CC(=O)O)c2c1	> 6.00
Cc1nc(-c2ccc(C(F)(F)F)cc2)sc1COc1cccc(CC(=O)O)c1	> 6.00
Cc1nc(-c2ccc(C(F)(F)F)cc2)sc1CSc1cccc(CC(=O)O)c1	> 6.00
Cc1nc(-c2ccc(C(F)(F)F)cc2)sc1COc1ccc2c(ccn2CC(=O)O)c1	< 5.00
Cc1nc(-c2ccc(C(F)(F)F)cc2)sc1Cn1cc(C(=O)O)c2ccccc21	< 5.00
Cc1nc(-c2ccc(C(F)(F)F)cc2)sc1COc1cccc2ccn(CC(=O)O)c12	< 5.00
Cc1nc(-c2ccc(C(F)(F)F)cc2)sc1Cn1ccc2c(C(=O)O)cccc21	< 5.00

For every item in the list below, what is its measured pEC50?
1. Cc1nc(-c2ccc(C(F)(F)F)cc2)sc1COc1ccc2[nH]cc(CC(=O)O)c2c1
2. Cc1nc(-c2ccc(C(F)(F)F)cc2)sc1COc1cccc2c1ccn2CC(=O)O

["> 6.00", "> 6.00"]

* * *

- ASSAY_TARGET: PPAR-delta (Homo sapiens, UniProt Q03181)
- Construct: expressed in transfected cells; host or cells: CV-1 cells
- PROTOCOL: human PPAR-GAL4 chimera luciferase reporter assay in CV-1 cells, PPAR-delta
- Type: cell-based
- MEASUREMENT_CONDITIONS: Table 3, Examples 11-25, read-out: PPAR delta (EC50)
Please respond with reported EC50 for every item in the list.

Worked cases, answers included:
Cc1nc(-c2ccc(C(F)(F)F)cc2)sc1CCn1ccc2ccc(OC(C)(C)C(=O)O)cc21	5 to 100 µM
Cc1nc(-c2ccc(C(F)(F)F)cc2)sc1CCn1ccc2cc(OCC(=O)O)ccc21	5 to 100 µM

Then there is this molecule:
Looking for the measured EC50 of Cc1nc(-c2ccc(C(F)(F)F)cc2)sc1Cn1ccc2c(OCC(=O)O)cccc21 , can you help? > 100 µM

* * *

- ASSAY_TARGET: PPAR-alpha (Homo sapiens, UniProt Q07869)
- Construct: expressed in transfected cells; host or cells: CV-1 cells
- Sequence (Q07869 239-466 limits assumed): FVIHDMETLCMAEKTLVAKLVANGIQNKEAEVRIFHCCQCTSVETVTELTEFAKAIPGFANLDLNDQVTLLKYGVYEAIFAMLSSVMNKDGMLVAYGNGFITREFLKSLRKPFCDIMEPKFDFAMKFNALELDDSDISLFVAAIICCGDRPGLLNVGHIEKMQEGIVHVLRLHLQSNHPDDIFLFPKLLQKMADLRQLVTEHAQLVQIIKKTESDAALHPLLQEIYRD
- PROTOCOL: human PPAR-GAL4 chimera luciferase reporter assay in CV-1 cells, PPAR-alpha
- Assay type: cell-based
- MEASUREMENT_CONDITIONS: Table 3, Examples 11-25, read-out: PPAR alpha (EC50)
pEC50: −log10 of the molar value.
Please respond with reported pEC50 for every item in the list.

Worked cases, answers included:
Cc1nc(-c2ccc(C(F)(F)F)cc2)sc1Cn1ccc2cccc(OCC(=O)O)c21	< 4.00
Cc1nc(-c2ccc(C(F)(F)F)cc2)sc1Cn1ccc2ccc(OCC(=O)O)cc21	4.00 to 5.30
Cc1nc(-c2ccc(C(F)(F)F)cc2)sc1Cn1ccc2c(OCC(=O)O)cccc21	< 4.00

Then there is this compound:
Looking for the measured pEC50 of Cc1nc(-c2ccc(C(F)(F)F)cc2)sc1Cn1ccc2ccc(OC(C)(C)C(=O)O)cc21 , can you help? 4.00 to 5.30
